assayedTarget: fusion protein PRM
Sequence (chain, as listed by the source): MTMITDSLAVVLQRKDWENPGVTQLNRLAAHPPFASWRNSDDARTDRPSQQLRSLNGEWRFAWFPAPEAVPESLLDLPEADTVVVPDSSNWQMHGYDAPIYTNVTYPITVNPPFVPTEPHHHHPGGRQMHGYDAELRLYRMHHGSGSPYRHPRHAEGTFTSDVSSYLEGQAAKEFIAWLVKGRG
measurementLabel: relative cleavage efficiency

Can you look up the measured relative cleavage efficiency of OmpT protease variant OmpT D97A (protein) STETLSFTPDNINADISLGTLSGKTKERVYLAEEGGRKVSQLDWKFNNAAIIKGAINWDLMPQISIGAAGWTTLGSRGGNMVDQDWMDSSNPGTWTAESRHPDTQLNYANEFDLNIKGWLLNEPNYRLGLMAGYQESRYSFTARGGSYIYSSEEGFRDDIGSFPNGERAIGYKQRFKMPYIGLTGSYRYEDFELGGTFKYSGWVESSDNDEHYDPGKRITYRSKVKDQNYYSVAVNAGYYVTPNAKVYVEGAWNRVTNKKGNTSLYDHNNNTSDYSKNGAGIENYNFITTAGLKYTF for me? < 3%
